target-entity: IKZF2 (Homo sapiens, UniProt Q96SW2+Q9UKS7)
assay-method-text: Human whole blood IKZF2 degradation (flow cytometry, CD4/CD25/Foxp3+ Treg cells)
Format: cell-based
Design: endogenous in cells
test-conditions: 24 hrs incubation, IKZF2 MFI in CD4/CD25/Foxp3+ Treg cells, flow cytometry, read-out: IKZF2 EC50
Sequence (Q9UKS7 whole entry): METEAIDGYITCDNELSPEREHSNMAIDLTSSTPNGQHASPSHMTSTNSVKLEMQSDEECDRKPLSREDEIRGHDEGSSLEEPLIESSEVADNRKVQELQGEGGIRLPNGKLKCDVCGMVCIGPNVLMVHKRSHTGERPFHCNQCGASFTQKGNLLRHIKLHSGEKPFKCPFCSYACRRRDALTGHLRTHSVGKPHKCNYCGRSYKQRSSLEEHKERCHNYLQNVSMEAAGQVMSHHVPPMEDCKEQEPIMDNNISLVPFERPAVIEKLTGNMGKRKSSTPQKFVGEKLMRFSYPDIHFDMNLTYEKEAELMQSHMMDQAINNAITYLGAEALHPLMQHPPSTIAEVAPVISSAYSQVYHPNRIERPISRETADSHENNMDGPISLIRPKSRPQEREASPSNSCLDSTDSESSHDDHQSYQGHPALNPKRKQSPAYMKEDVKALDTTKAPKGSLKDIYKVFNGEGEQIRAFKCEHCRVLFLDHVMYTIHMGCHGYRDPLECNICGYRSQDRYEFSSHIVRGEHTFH
Sequence (Q96SW2 whole entry): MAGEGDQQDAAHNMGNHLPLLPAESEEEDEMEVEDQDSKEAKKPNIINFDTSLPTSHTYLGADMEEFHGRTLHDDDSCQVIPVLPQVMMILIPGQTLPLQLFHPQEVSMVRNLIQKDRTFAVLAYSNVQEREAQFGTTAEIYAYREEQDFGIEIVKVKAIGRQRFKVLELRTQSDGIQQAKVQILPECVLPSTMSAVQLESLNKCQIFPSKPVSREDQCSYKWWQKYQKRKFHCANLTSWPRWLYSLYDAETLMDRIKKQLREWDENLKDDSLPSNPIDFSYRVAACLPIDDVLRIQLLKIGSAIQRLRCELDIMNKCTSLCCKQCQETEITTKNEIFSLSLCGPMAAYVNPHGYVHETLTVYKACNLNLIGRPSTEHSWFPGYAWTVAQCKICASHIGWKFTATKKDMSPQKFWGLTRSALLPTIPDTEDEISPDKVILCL
Sequence (Q16531 whole entry partner): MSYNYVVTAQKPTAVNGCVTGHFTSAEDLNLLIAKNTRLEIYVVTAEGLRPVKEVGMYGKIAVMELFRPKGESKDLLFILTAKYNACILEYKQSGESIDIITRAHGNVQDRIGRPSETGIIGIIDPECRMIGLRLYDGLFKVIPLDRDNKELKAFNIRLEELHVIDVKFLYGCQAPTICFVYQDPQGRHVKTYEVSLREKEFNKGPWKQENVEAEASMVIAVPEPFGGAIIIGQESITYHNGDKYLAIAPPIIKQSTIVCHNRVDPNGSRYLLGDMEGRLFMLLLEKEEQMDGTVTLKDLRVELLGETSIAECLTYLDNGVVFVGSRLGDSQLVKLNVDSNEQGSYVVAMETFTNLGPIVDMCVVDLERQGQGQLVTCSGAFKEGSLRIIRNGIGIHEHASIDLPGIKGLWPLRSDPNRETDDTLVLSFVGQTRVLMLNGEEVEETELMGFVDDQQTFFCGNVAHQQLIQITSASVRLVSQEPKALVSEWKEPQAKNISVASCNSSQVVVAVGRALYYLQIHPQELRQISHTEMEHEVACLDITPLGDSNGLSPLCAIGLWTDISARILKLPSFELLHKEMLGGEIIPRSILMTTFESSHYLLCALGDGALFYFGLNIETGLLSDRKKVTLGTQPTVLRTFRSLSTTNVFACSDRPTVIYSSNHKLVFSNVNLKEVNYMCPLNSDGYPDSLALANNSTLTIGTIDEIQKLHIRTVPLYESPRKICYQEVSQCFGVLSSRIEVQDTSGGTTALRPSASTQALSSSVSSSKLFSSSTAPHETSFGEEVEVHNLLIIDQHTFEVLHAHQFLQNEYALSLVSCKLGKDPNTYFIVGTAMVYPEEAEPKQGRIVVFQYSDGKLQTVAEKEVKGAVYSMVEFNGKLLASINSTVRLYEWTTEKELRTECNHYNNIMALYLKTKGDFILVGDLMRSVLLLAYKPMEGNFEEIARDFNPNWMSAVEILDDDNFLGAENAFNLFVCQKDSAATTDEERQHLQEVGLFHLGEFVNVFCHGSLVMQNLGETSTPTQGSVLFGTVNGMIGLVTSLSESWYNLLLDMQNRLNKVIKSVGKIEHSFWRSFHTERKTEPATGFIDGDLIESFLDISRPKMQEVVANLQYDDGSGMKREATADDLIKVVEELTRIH
property-label: DC50 (nM)

>>> result_number("O=C1CCC(N2Cc3cc(C[C@H]4CCCC[C@@H]4NC4CCCCC4)ccc3C2=O)C(=O)N1 (stereo partly drawn)")
4
>>> result_number("O=C1CCC(N2Cc3c(ccc(C[C@H]4CCCC[C@@H]4NCC4COC4)c3F)C2=O)C(=O)N1 (stereo partly drawn)")
5
>>> result_number("CC(N[C@H]1CCCC[C@@H]1Cc1ccc2c(c1)CN(C1CCC(=O)NC1=O)C2=O)C1(C)CCC1 (stereo partly drawn)")
10
>>> result_number("CC1(C)CC(N[C@H]2CCCC[C@@H]2Cc2ccc3c(c2)CN(C2CCC(=O)NC2=O)C3=O)CC(C)(C)O1 (stereo partly drawn)")
3
>>> result_number("O=C1CCC(N2Cc3cc(C[C@H]4CCCC[C@@H]4NC4CC5(CCC(F)(F)CC5)C4)ccc3C2=O)C(=O)N1 (stereo partly drawn)")
5
>>> result_number("CC(N[C@H]1CCCC[C@@H]1Cc1ccc2c(c1)CN(C1CCC(=O)NC1=O)C2=O)C12CC(C1)C2 (stereo partly drawn)")
3
>>> result_number("O=C1CCC(N2Cc3c(ccc(C[C@H]4CCCC[C@@H]4NC4CCOC4)c3F)C2=O)C(=O)N1 (stereo partly drawn) [Example 118]")
1
>>> result_number("O=C1CC[C@@H](N2Cc3cc(C[C@H]4CCCC[C@@H]4NC4CCC(F)(F)CC4)ccc3C2=O)C(=O)N1 (single isomer, unassigned)")
4
>>> result_number("O=C1CCC(N2Cc3c(ccc(C[C@H]4OCCC[C@@H]4NC4CCC(F)(F)CC4)c3F)C2=O)C(=O)N1 (stereo partly drawn)")
7
>>> result_number("O=C1CC[C@H](N2Cc3cc(C[C@H]4CCCC[C@@H]4NC4CCC(F)(F)CC4)ccc3C2=O)C(=O)N1 (single isomer, unassigned)")
2
>>> result_number("CC(C)N[C@H]1CCCC[C@@H]1Cc1ccc2c(c1)CN(C1CCC(=O)NC1=O)C2=O (stereo partly drawn)")
2
>>> result_number("O=C1CCC(N2Cc3cc(C[C@H]4CCCC[C@@H]4NC4CCC(C(F)F)CC4)ccc3C2=O)C(=O)N1 (stereo partly drawn)")
2
>>> result_number("O=C1CCC(N2Cc3c(ccc(C[C@H]4OCCC[C@@H]4NC4CCC(C(F)F)CC4)c3F)C2=O)C(=O)N1 (single isomer, unassigned)")
5
>>> result_number("C[C@]1(O)CC[C@H](NC2CCC(F)(F)CC2)[C@@H](Cc2ccc3c(c2)CN(C2CCC(=O)NC2=O)C3=O)C1 (stereo partly drawn)")
12
>>> result_number("CCC(C)N[C@H]1CCCC[C@@H]1Cc1ccc2c(c1)CN(C1CCC(=O)NC1=O)C2=O (single isomer, unassigned)")
2
>>> result_number("O=C1CCC(N2Cc3cc(C[C@H]4CCCC[C@@H]4NC4CCOCC4)ccc3C2=O)C(=O)N1 (stereo partly drawn)")
3
>>> result_number("O=C1CCC(N2Cc3cc(C[C@H]4CCCC[C@@H]4NC4CCC5(CC4)CC5(F)F)ccc3C2=O)C(=O)N1 (single isomer, unassigned)")
2
>>> result_number("CC(N[C@H]1CCCC[C@@H]1Cc1ccc2c(c1)CN(C1CCC(=O)NC1=O)C2=O)C1CCC1 (stereo partly drawn) [Example 218]")
4
>>> result_number("[2H]C1(N[C@H]2CCCC[C@@H]2Cc2ccc3c(c2)CN(C2CCC(=O)NC2=O)C3=O)CC(C)(C)C1 (stereo partly drawn)")
3
>>> result_number("O=C1CCC(N2Cc3cc(C[C@H]4CCCC[C@@H]4NC4CCC(OC(F)(F)F)CC4)ccc3C2=O)C(=O)N1 (single isomer, unassigned)")
4
>>> result_number("O=C1CCC(N2Cc3cc(C[C@H]4CCCC[C@@H]4NCC45CC(C4)C5)ccc3C2=O)C(=O)N1 (stereo partly drawn)")
19
>>> result_number("CC(N[C@H]1CCCC[C@@H]1Cc1ccc2c(c1)CN(C1CCC(=O)NC1=O)C2=O)C1CCC1 (stereo partly drawn) [Example 103]")
4
>>> result_number("O=C1CCC(N2Cc3cc(C[C@H]4CCCC[C@@H]4NC4CCC5(CC5)C4)ccc3C2=O)C(=O)N1 (single isomer, unassigned)")
5
>>> result_number("O=C1CCC(N2Cc3c(ccc(C[C@H]4OCCC[C@@H]4NC4CCCC4)c3F)C2=O)C(=O)N1 (stereo partly drawn)")
6
>>> result_number("CC(N[C@H]1CCCC[C@@H]1Cc1ccc2c(c1)CN(C1CCC(=O)NC1=O)C2=O)C1CC(F)(F)C1 (single isomer, unassigned) [Example 136]")
6
>>> result_number("CC1(C)CC(N[C@H]2CCCC[C@@H]2Cc2ccc3c(c2)CN(C2CCC(=O)NC2=O)C3=O)CCO1 (stereo partly drawn) [Example 110]")
3
>>> result_number("CC(N[C@H]1CCCO[C@@H]1Cc1ccc2c(c1F)CN(C1CCC(=O)NC1=O)C2=O)C1CCC1 (single isomer, unassigned)")
4

----------
target-entity: IKZF2 (Homo sapiens, UniProt Q96SW2+Q9UKS7)
assay-method-text: HEK293 HiBiT in vitro degradation of IKZF2
Type: cell-based
Set-up: expressed in transfected cells
test-conditions: HEK293, HEK293 HiBiT; maximum degradation at the highest concentration tested
Sequence (Q9UKS7 1-500 isoform Q9UKS7-2): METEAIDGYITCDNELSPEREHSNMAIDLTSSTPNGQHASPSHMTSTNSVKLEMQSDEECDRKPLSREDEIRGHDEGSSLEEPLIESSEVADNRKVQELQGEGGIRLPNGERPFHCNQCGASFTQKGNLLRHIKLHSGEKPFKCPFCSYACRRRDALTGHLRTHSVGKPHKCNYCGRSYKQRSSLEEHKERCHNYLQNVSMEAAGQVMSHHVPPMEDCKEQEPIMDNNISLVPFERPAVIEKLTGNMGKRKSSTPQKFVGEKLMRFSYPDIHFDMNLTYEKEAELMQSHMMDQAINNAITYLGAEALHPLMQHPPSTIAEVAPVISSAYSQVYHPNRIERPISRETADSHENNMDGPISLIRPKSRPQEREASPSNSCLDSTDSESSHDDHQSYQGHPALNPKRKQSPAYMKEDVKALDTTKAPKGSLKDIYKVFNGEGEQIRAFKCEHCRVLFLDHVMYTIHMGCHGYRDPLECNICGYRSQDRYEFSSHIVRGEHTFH
Sequence (Q96SW2 whole entry): as the sequence (Q96SW2 whole entry) above
Sequence (Q16531 whole entry partner): as the sequence (Q16531 whole entry partner) above
property-label: Dmax (%)

>>> result_number("O=C1CCC(N2Cc3cc(C[C@H]4CCCC[C@@H]4NC4COc5ccccc5C4)ccc3C2=O)C(=O)N1 (stereo partly shown) [Example 143]")
94
>>> result_number("O=C1CCC(N2Cc3cc(C[C@H]4CCCC[C@@H]4NC4CCOCC4)ccc3C2=O)C(=O)N1 (stereo partly shown) [Example 74]")
96
>>> result_number("O=C1CCC(N2Cc3cc(C[C@H]4CCCC[C@@H]4NCc4c(F)cccc4F)ccc3C2=O)C(=O)N1 (stereo partly shown) [Example 18]")
89
>>> result_number("COC1CCC(N[C@H]2CCCC[C@@H]2Cc2ccc3c(c2)CN(C2CCC(=O)NC2=O)C3=O)CC1 (single isomer, unassigned) [Example 277]")
98
>>> result_number("CC(N[C@H]1CCCC[C@@H]1Cc1ccc2c(c1)CN(C1CCC(=O)NC1=O)C2=O)C1CC1 (stereo partly shown) [Example 102]")
96
>>> result_number("O=C1CCC(N2Cc3c(ccc(C[C@H]4OCCC[C@@H]4NC4CCC(OC(F)F)CC4)c3F)C2=O)C(=O)N1 (single isomer, unassigned) [Example 326]")
95
>>> result_number("O=C1CCC(N2Cc3cc(C[C@H]4CCCC[C@@H]4NCc4ccccn4)ccc3C2=O)C(=O)N1 (stereo partly shown) [Example 45]")
71
>>> result_number("CC(N[C@H]1CCCC[C@@H]1Cc1ccc2c(c1)CN(C1CCC(=O)NC1=O)C2=O)C1CCCC1 (stereo partly shown) [Example 201]")
96
>>> result_number("O=C1CCC(N2Cc3cc(C[C@H]4CCCC[C@@H]4NCc4ccncc4)ccc3C2=O)C(=O)N1 (stereo partly shown) [Example 40]")
81
>>> result_number("[2H]C1(N[C@H]2CCCC[C@@H]2Cc2ccc3c(c2F)CN(C2CCC(=O)NC2=O)C3=O)CCCCC1 (stereo partly shown) [Example 211]")
98
>>> result_number("CC(c1ccc2c(c1)CN(C1CCC(=O)NC1=O)C2=O)[C@H]1CCCC[C@@H]1NC1CCC(F)(F)CC1 (stereo partly shown) [Example 147]")
75
>>> result_number("O=C1CCC(N2Cc3c(ccc(C[C@H]4CCCC[C@@H]4NC4CC5CCCC5C4)c3F)C2=O)C(=O)N1 (stereo partly shown) [Example 141]")
98
>>> result_number("COCC1CCC(N[C@H]2CCCC[C@@H]2Cc2ccc3c(c2)CN(C2CCC(=O)NC2=O)C3=O)CC1 (single isomer, unassigned) [Example 251]")
98
>>> result_number("O=C1CCC(N2Cc3c(ccc(C[C@H]4OCCC[C@@H]4NC4CCC(F)(F)CC4)c3F)C2=O)C(=O)N1 (stereo partly shown) [Example 94]")
96
>>> result_number("[2H]c1c([2H])c([2H])c(CN[C@H]2CCCC[C@@H]2Cc2ccc3c(c2)CN(C2CCC(=O)NC2=O)C3=O)c([2H])c1[2H] (single isomer, unassigned) [Example 25]")
87
>>> result_number("C[C@@H]1CCCC[C@H]1N[C@H]1CCCC[C@@H]1Cc1ccc2c(c1)CN(C1CCC(=O)NC1=O)C2=O (relative stereo) [Example 303]")
82
>>> result_number("O=C1CCC(N2Cc3cc(C[C@H]4CCCC[C@@H]4NC4CCC5(CC4)COC5)ccc3C2=O)C(=O)N1 (stereo partly shown) [Example 86]")
97
>>> result_number("O=C1CCC(N2Cc3c(ccc(C[C@H]4CCCC[C@@H]4NCC4CCC(F)(F)CC4)c3F)C2=O)C(=O)N1 (stereo partly shown) [Example 99]")
94
>>> result_number("O=C1CCC(N2Cc3cc(C[C@H]4CCCC[C@@H]4NCc4cncs4)ccc3C2=O)C(=O)N1 (stereo partly shown) [Example 6]")
90
>>> result_number("CC(C)N[C@H]1CCCC[C@@H]1Cc1ccc2c(c1F)CN(C1CCC(=O)NC1=O)C2=O (stereo partly shown) [Example 85]")
97
>>> result_number("O=C1CCC(N2Cc3cc(C[C@H]4CCCC[C@@H]4N4CC(Oc5ccccc5Cl)C4)ccc3C2=O)C(=O)N1 (stereo partly shown) [Example 30]")
81
>>> result_number("O=C1CCC(N2Cc3cc(C[C@H]4CCCC[C@@H]4NC4CC4)ccc3C2=O)C(=O)N1 (stereo partly shown) [Example 47]")
93
>>> result_number("O=C1CCC(N2Cc3c(ccc(C[C@H]4CCCC[C@@H]4N(Cc4ccccc4)Cc4ccccc4)c3F)C2=O)C(=O)N1 (stereo partly shown) [Example 5]")
92
>>> result_number("O=C1CCC(N2Cc3c(ccc(C[C@H]4CCCC[C@@H]4NC4CCC(F)(F)CC4)c3F)C2=O)C(=O)N1 (stereo partly shown) [Example 84]")
97
>>> result_number("O=C1CCC(N2Cc3cc(C[C@H]4CCCC[C@@H]4NCc4cscn4)ccc3C2=O)C(=O)N1 (stereo partly shown) [Example 36]")
89
>>> result_number("O=C1CCC(N2Cc3cc(C[C@H]4C[C@@H](F)CC[C@@H]4NC4CCCCC4)ccc3C2=O)C(=O)N1 (stereo partly shown) [Example 342]")
86
>>> result_number("CC(C)OC1CCC(N[C@H]2CCCC[C@@H]2Cc2ccc3c(c2)CN(C2CCC(=O)NC2=O)C3=O)CC1 (single isomer, unassigned) [Example 167]")
97
>>> result_number("O=C1CCC(N2Cc3cc(C[C@H]4CCCC[C@@H]4NC4C5CCC4COC5)ccc3C2=O)C(=O)N1 (stereo partly shown) [Example 194]")
92
